Target: T1, melanocortin-1 receptor (mouse (B-16 melanoma cells); in some …, UniProt Q01727 1-315)
T1 construct: whole, on cells; membrane homogenates; also called MC1-R; mouse B16 MC1-R
T1 sequence (Q01727 whole entry): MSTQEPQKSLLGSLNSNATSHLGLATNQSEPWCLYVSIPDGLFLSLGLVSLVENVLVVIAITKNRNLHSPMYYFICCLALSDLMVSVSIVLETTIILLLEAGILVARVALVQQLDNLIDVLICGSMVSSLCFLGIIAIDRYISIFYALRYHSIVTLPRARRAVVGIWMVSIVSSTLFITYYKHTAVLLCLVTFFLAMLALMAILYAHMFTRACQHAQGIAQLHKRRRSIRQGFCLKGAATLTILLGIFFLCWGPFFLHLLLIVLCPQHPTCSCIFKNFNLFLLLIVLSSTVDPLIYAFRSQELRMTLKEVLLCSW
Assay: [I125]-NDP-α-MSH competition, MC1-R membranes
Positions of bridges follow the written chain, without caps; N, C: chain ends. Non-standard residues stand in square brackets, D forms with d. dPhe(2-CF3) = N[C@H](Cc1ccccc1C(F)(F)F)C(=O)O; dPhe(4-CN) = N#Cc1ccc(C[C@@H](N)C(=O)O)cc1; dPhe(3-Cl) = N[C@H](Cc1cccc(Cl)c1)C(=O)O; dPhe(2-Cl) = N[C@H](Cc1ccccc1Cl)C(=O)O; dPhe(4-F) = N[C@H](Cc1ccc(F)cc1)C(=O)O; Orn = NCCC[C@H](N)C(=O)O
Item-by-item account of pKi
pKi is defined as minus the log10 of a concentration measured in mol/L.

Some binders with recorded pKi:
| Binder | pKi |
| --- | --- |
| Ac-REN[dPhe(2-Cl)]RW[Orn]-NH2 (lactam 2-7; SMILES CC(=O)N[C@@H](CCCNC(=N)N)C(=O)N[C@H]1CCC(=O)NCCC[C@@H](C(N)=O)NC(=O)[C@H](Cc2c[nH]c3ccccc23)NC(=O)[C@H](CCCNC(=N)N)NC(=O)[C@@H](Cc2ccccc2Cl)NC(=O)[C@H](CC(N)=O)NC1=O, also called No. 84) [Ac-Arg-cyclo(Glu-Asn-D-Phe(2-Cl)-Arg-Trp-Orn)-NH2] | 6.61 |
| Ac-RED[dPhe(4-CN)]RW[Orn]-OH (lactam 2-7; SMILES CC(=O)N[C@@H](CCCNC(=N)N)C(=O)N[C@H]1CCC(=O)NCCC[C@@H](C(=O)O)NC(=O)[C@H](Cc2c[nH]c3ccccc23)NC(=O)[C@H](CCCNC(=N)N)NC(=O)[C@@H](Cc2ccc(C#N)cc2)NC(=O)[C@H](CC(=O)O)NC1=O, also called No. 107) [Ac-Arg-cyclo(Glu-Asp-D-Phe(4-CN)-Arg-Trp-Orn)-OH] | 5.00 |
| Ac-REQ[dPhe(4-CN)]RW[Orn]-OH (lactam 2-7, also called No. 86) [Ac-Arg-cyclo(Glu-Gln-D-Phe(4-CN)-Arg-Trp-Orn)-OH] | 5.40 |
| Ac-REQ[dPhe(2-CF3)]RW[Orn]-NH2 (lactam 2-7, also called No. 114) [Ac-Arg-cyclo(Glu-Gln-D-Phe(2-CF3)-Arg-Trp-Orn)-NH2] | 7.03 |
| Ac-REN[dPhe(4-F)]RW[Orn]-NH2 (lactam 2-7, also called No. 69) [Ac-Arg-cyclo(Glu-Asn-D-Phe(4-F)-Arg-Trp-Orn)-NH2] | 6.82 |

INPUT: For the binder Ac-RES[dPhe(4-CN)]RW[Orn]-NH2 (lactam 2-7; SMILES CC(=O)N[C@@H](CCCNC(=N)N)C(=O)N[C@H]1CCC(=O)NCCC[C@@H](C(N)=O)NC(=O)[C@H](Cc2c[nH]c3ccccc23)NC(=O)[C@H](CCCNC(=N)N)NC(=O)[C@@H](Cc2ccc(C#N)cc2)NC(=O)[C@H](CO)NC1=O, also called No. 45) [Ac-Arg-cyclo(Glu-Ser-D-Phe(4-CN)-Arg-Trp-Orn)-NH2] , give its measured pKi value.
OUTPUT: 5.00

INPUT: Let me know recorded pKi for Ac-RES[dPhe(2-Cl)]RW[Orn]-NH2 (lactam 2-7; SMILES CC(=O)N[C@@H](CCCNC(=N)N)C(=O)N[C@H]1CCC(=O)NCCC[C@@H](C(N)=O)NC(=O)[C@H](Cc2c[nH]c3ccccc23)NC(=O)[C@H](CCCNC(=N)N)NC(=O)[C@@H](Cc2ccccc2Cl)NC(=O)[C@H](CO)NC1=O, also called No. 31) [Ac-Arg-cyclo(Glu-Ser-D-Phe(2-Cl)-Arg-Trp-Orn)-NH2] , thanks.
OUTPUT: 6.52

INPUT: # return recorded pKi for input Ac-REQ[dPhe(3-Cl)]RW[Orn]-NH2 (lactam 2-7, also called No. 38) [Ac-Arg-cyclo(Glu-Gln-D-Phe(3-Cl)-Arg-Trp-Orn)-NH2]
OUTPUT: 6.54

INPUT: Please list pKi recorded for the binder XDQXRWK (N-terminal Ac; D-Arg 1; D-Phe(2-Cl) 4; lactam Asp 2-Lys 7; C-terminal NH2, also called No. 79) [Ac-D-Arg-cyclo(Asp-Gln-D-Phe(2-Cl)-Arg-Trp-Lys)-NH2]
OUTPUT: 6.40

INPUT: Give the measured pKi for Ac-REP[dPhe(4-F)]RW[Orn]-OH (lactam 2-7; SMILES CC(=O)N[C@@H](CCCNC(=N)N)C(=O)N[C@H]1CCC(=O)NCCC[C@@H](C(=O)O)NC(=O)[C@H](Cc2c[nH]c3ccccc23)NC(=O)[C@H](CCCNC(=N)N)NC(=O)[C@@H](Cc2ccc(F)cc2)NC(=O)[C@@H]2CCCN2C1=O) [Ac-Arg-cyclo(Glu-Pro-D-Phe(4-F)-Arg-Trp-Orn)-OH]
OUTPUT: 6.14
